From: the supplement of paper PMC11208160

ASSAY_NAME: recombinant UMI read abundance after kanamycin selection (control-corrected) (log10(CPM+1)); higher = more efficient recombination; extreme values may be limits of the assay; sequences stand for … in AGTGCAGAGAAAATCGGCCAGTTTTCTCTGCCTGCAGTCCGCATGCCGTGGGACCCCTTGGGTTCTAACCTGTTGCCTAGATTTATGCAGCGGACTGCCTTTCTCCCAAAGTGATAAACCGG…AGGTTGGTTTCACT; site = the 11-nt donor;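 further: IS621 bridge recombinase in Escherichia coli cells against a fixed T5 target plasmid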
Entry flag: True if recombinant UMI read abundance (log10) reaches 0.5; False if it does not.

Illustrative cases are given below, each with its answer.
AACGGTCCATGGACCGGTTTTCCCGGTAATCCGTATTTGAT (site AACCGTCCTAT)	False
CTCCCTACATGGACCGGTTTTCCCGGTAATCCGTATTTGCG (site CTCCCTACTCT)	True
ATCCAAGCATGGACCGGTTTTCCCGGTAATCCGTATTTGAC (site ATCCAAGCTTT)	True

Ask: Evaluate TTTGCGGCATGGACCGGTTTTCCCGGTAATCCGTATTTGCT (site TTTGAGGCTAG) : recombinant UMI read abundance (log10) at minimum 0.5?
Reply: False

Ask: What do you get for GCCATATCATGGACCGGTTTTCCCGGTAATCCGTATTTGTC (site GCCATATCTGA) ?
Reply: True

Ask: What do you get for AACCCAACATGGACCGGTTTTCCCGGTAATCCGTATTTGAC (site AACCCAACTGT) ?
Reply: True

Ask: What do you get for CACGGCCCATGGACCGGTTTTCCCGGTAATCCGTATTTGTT (site CCCGGCCCTAA) ?
Reply: False

Ask: What do you get for GTAGGGGCATGGACCGGTTTTCCCGGTAATCCGTATTTGAA (site GTAGGGGCTTT) ?
Reply: True

Ask: What do you get for AGGTAGGCATGGACCGGTTTTCCCGGTAATCCGTATTTGTT (site AGGTAGGCTAA) ?
Reply: True

Ask: What do you get for CACTTGGCATGGACCGGTTTTCCCGGTAATCCGTATTTGGT (site CACTTGGCTGC) ?
Reply: True

* * *

ASSAY_NAME: recombinant UMI read abundance after kanamycin selection (control-corrected) (log10(CPM+1)); higher = more efficient recombination; extreme values may be limits of the assay; sequences stand for … in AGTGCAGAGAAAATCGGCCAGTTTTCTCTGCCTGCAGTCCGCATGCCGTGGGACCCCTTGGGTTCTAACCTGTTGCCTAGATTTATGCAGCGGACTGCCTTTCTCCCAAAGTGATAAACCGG…AGGTTGGTTTCACT; site = the 11-nt donor
Entry flag: MET if recombinant UMI read abundance (log10) reaches 0.2; NOT MET if it does not.

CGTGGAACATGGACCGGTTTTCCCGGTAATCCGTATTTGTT (site AGTGGAACTAA)	NOT MET
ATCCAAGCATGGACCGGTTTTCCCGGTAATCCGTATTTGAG (site ATCCAGGCTCT)	MET
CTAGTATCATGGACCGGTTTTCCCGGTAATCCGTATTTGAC (site CTAGTATCTGC)	MET
TGCTGGGCATGGACCGGTTTTCCCGGTAATCCGTATTTGGT (site TGCTTGGCTAC)	NOT MET

Attention now turns to another entry.
Ask: Evaluate ACATTTACATGGACCGGTTTTCCCGGTAATCCGTATTTGTG (site ACATCTACTCA) : recombinant UMI read abundance (log10) at minimum 0.2?
Reply: NOT MET
